system: DIPGX29 (H3.3 K27M diffuse intrinsic pontine glioma line); experiment: growth inhibition (% activity, log2 RLU normalised to DMSO / staurosporine); higher = more growth inhibition; conditions: 33 µM
assay_metric: growth inhibition (%)
Provide the reading as a plain figure in %.

Task item: Fill in: growth inhibition of `CC(C)(C)CC(C)(C)c1ccc(O)c(Cc2ccc(Cl)cc2Cl)c1` is ___
Reply: 1.52

Task item: Input `CC(C)(C)CC(C)(C)c1ccc(OCCOCC[N+](C)(C)Cc2ccccc2)cc1`
Reply: 65.1

Task item: Input CC(CN(C)C)CN1c2ccccc2CCc2ccccc21 (stereo unspecified)
Reply: -1.45

Task item: Input O=C1OC(CN2CCOCC2)CN1/N=C/c1ccc([N+](=O)[O-])o1 (stereo unspecified)
Reply: -1.53

Task item: Input `NC(=O)c1cnccn1`
Reply: -1.43

Task item: Input `Cc1cc(=O)[nH]c(=S)[nH]1`
Reply: 0.66

Task item: Input `N=S(=O)(O)Cc1noc2ccccc12`
Reply: -1.43

Task item: Input `CC=CC1=C(C(=O)O)N2C(=O)[C@@H](NC(=O)[C@H](N)c3ccc(O)cc3)[C@H]2SC1`
Reply: -1.6

Task item: Input `Cc1cc(=O)n(-c2ccccc2)n1C`
Reply: -0.731

Task item: Input `O=C(Nc1ccccc1)c1ccccc1O`
Reply: -0.176

Task item: Input `CC(C)c1c(C(=O)Nc2ccccc2)c(-c2ccccc2)c(-c2ccc(F)cc2)n1CC[C@@H](O)C[C@@H](O)CC(=O)O`
Reply: 16.8

Data origin: the supplement of paper PMC8253809
